Values compiled from patent US10098894B2.

ASSAY: Progesterone solubility study in different solvent systems
Type: physicochemical
CONDITION_LABEL: oil or lipid, thermodynamic from solid; in MIGLYOL 812 + LABRAFAC PG (50:50); room temperature, visual
ATTRIBUTE_MEASURED: solubility (mg/mL)
Answers are plain numbers, in mg/mL.

Qu. Find the recorded solubility belonging to CC(=O)[C@H]1CC[C@H]2[C@@H]3CCC4=CC(=O)CC[C@]4(C)[C@H]3CC[C@]12C and report it.
Ans. 25.7

---

ASSAY: Progesterone solubility study in different solvent systems
Type: physicochemical
CONDITION_LABEL: organic solvent or mixture, thermodynamic from solid; in Absolute Alcohol; room temperature, visual
ATTRIBUTE_MEASURED: solubility (mg/mL)
Give bare numbers, in mg/mL.

Qu. I have this molecule here, CC(=O)[C@H]1CC[C@H]2[C@@H]3CCC4=CC(=O)CC[C@]4(C)[C@H]3CC[C@]12C , and I need its recorded solubility.
Ans. 57

---

ASSAY: Progesterone solubility study in different solvent systems
Type: physicochemical
CONDITION_LABEL: oil or lipid, thermodynamic from solid; in MIGLYOL 812 + LAUROGLYCOL 90 (25:75); room temperature, visual
Method: Solubility of progesterone was determined on a visual basis by adding progesterone incrementally to a certain quantity of solvent at room temperature until a supersaturated solution was formed.
ATTRIBUTE_MEASURED: solubility (mg/mL)
One number for each entry, in mg/mL.

Qu. Reported solubility, compound CC(=O)[C@H]1CC[C@H]2[C@@H]3CCC4=CC(=O)CC[C@]4(C)[C@H]3CC[C@]12C [progesterone, pregn-4-ene-3,20-dione] : ____
Ans. 47

---

ASSAY: Progesterone solubility study in different solvent systems
Type: physicochemical
CONDITION_LABEL: oil or lipid, thermodynamic from solid; in Oleic Acid; room temperature, visual
ATTRIBUTE_MEASURED: solubility
Express your answer as a number followed by its unit.

Qu. GET /values?readout=solubility&item= CC(=O)[C@H]1CC[C@H]2[C@@H]3CCC4=CC(=O)CC[C@]4(C)[C@H]3CC[C@]12C
Ans. 62.2 mg/mL

---

ASSAY: Exposure, tissue distribution and metabolite profile (progesterone, ALLO, ALLO-sulfate in plasma, salivary gland, uterus) in ovariectomized rats
Assay type: in vivo
CONDITION_LABEL: female, Crl:CD, uterus/plasma, topical, 3.13 mg/rat/day, transdermal route, read-out: Ratio of progesterone levels in the uterus to plasma
Protocol: Thirty-two 8-week-old, female, Crl:CD® rats underwent ovariectomy 2 weeks prior to study start. […] Plasma and tissue homogenates were analyzed for progesterone, ALLO, and ALLO-sulfate using LC-MS/MS.
ATTRIBUTE_MEASURED: Kp at 2 h
Numbers only.

Qu. Query (compound): CC(=O)[C@H]1CC[C@H]2[C@@H]3CCC4=CC(=O)CC[C@]4(C)[C@H]3CC[C@]12C [progesterone, pregn-4-ene-3,20-dione] ; field requested: Kp at 2 h
Ans. 12

---

ASSAY: Progesterone solubility study in different solvent systems
Format: physicochemical
CONDITION_LABEL: oil or lipid, thermodynamic from solid; in MIGLYOL 812 + D-L α Tocopherol Care (95:5); room temperature, visual
ATTRIBUTE_MEASURED: solubility (mg/mL)
Give bare numbers, in mg/mL.

Qu. I'd like to know its solubility. The compound in question is CC(=O)[C@H]1CC[C@H]2[C@@H]3CCC4=CC(=O)CC[C@]4(C)[C@H]3CC[C@]12C
Ans. 20.1

---

ASSAY: Progesterone solubility study in different solvent systems
Assay type: physicochemical
CONDITION_LABEL: oil or lipid, thermodynamic from solid; in MIGLYOL 812 + TRANSCUTOL (92.5:7.5); room temperature, visual
ATTRIBUTE_MEASURED: solubility (mg/mL)
One number for each entry, in mg/mL.

Qu. Quick one: solubility for CC(=O)[C@H]1CC[C@H]2[C@@H]3CCC4=CC(=O)CC[C@]4(C)[C@H]3CC[C@]12C ?
Ans. 40.2

---

ASSAY: Progesterone solubility study in different solvent systems
Assay type: physicochemical
CONDITION_LABEL: organic solvent or mixture, thermodynamic from solid; in Propylene Glycol; room temperature, visual
Description: Solubility of progesterone was determined on a visual basis by adding progesterone incrementally to a certain quantity of solvent at room temperature until a supersaturated solution was formed.
ATTRIBUTE_MEASURED: solubility

Qu. Value lookup for solubility; key = CC(=O)[C@H]1CC[C@H]2[C@@H]3CCC4=CC(=O)CC[C@]4(C)[C@H]3CC[C@]12C
Ans. 10.5 mg/mL
